FYI, the data here is from paper PMC10096180.

Overview of reported A2780 SRB Max Inhibition across a group of compounds:
System: A2780 cells
runDescription: SRB binding assay, cytostasis, 48 h treatment
Format: cell-based
assayConditions: up to 100 μM, ND = not detectable

[[record]]
compound = "Cc1c(C)c(C)[c-](C)c1C.F[P-](F)(F)(F)(F)F.N[C@@H]1[C@@H](OC(=O)c2ccccc2)[C@H](OC(=O)c2ccccc2)[C@@H](COC(=O)c2ccccc2)O[C@H]1c1cnccn1.[Cl][Rh+2] [Rh-7d]"
testvalue = "64.76%"


Specify the recorded A2780 SRB Max Inhibition for Cc1c(C)c(C)[c-](C)c1C.F[P-](F)(F)(F)(F)F.N[C@@H]1[C@@H](OC(=O)c2ccccc2)[C@H](OC(=O)c2ccccc2)[C@@H](COC(=O)c2ccccc2)O[C@H]1c1cnccn1.[Cl][Ir+2] [Ir-7d] , system: A2780 cells.
80.44%

Report measured A2780 SRB Max Inhibition on A2780 cells; entry: Cc1c(C)c(C)[c-](C)c1C.F[P-](F)(F)(F)(F)F.N[C@@H]1[C@@H](OCc2ccccc2)[C@H](OCc2ccccc2)[C@@H](COCc2ccccc2)O[C@H]1c1ccccn1.[Cl][Rh+2] [Rh-3a]
>90%

Please look at Cc1ccc(C(C)C)cc1.F[P-](F)(F)(F)(F)F.NC1C(c2cccnn2)OC(COC(=O)c2ccccc2)C(OC(=O)c2ccccc2)C1OC(=O)c1ccccc1.[Cl][Os+] (mixture of isomers) [Os-7b] and tell me its recorded A2780 SRB Max Inhibition on A2780 cells.
>90%

Please report the measured A2780 SRB Max Inhibition for N[C@@H]1[C@@H](OCc2ccccc2)[C@H](OCc2ccccc2)[C@@H](COCc2ccccc2)O[C@H]1c1ccccn1 [Complex 3a] tested on A2780 cells.
>90%

Look up and report measured A2780 SRB Max Inhibition (A2780 cells) for the following compound: Cc1ccc(C(C)C)cc1.F[P-](F)(F)(F)(F)F.N[C@@H]1[C@@H](OC(=O)c2ccccc2)[C@H](OC(=O)c2ccccc2)[C@@H](COC(=O)c2ccccc2)O[C@H]1c1ccccn1.[Cl][Ru+] [Ru-7a]
>90%

Would you please give the reported A2780 SRB Max Inhibition of Cc1ccc(C(C)C)cc1.F[P-](F)(F)(F)(F)F.N[C@@H]1[C@@H](OCc2ccccc2)[C@H](OCc2ccccc2)[C@@H](COCc2ccccc2)O[C@H]1c1cnccn1.[Cl][Os+] [Os-3d] with A2780 cells?
>90%

Report measured A2780 SRB Max Inhibition on A2780 cells; entry: N[C@@H]1[C@@H](OC(=O)c2ccccc2)[C@H](OC(=O)c2ccccc2)[C@@H](COC(=O)c2ccccc2)O[C@H]1c1ccc2ccccc2n1 [Complex 7e]
45.20%
